Recorded values, source BigSolDB 2.1.

measurement setup: in acetone, 293.15 K
measured parameter: solubility (mole fraction)
Output spec: single numeric token, no unit.

Query block: Please give the measured solubility (mole fraction) for this compound: CCOC(=O)OC1=C(c2cc(C)ccc2C)C(=O)NC12CCC(OC)CC2 (stereo unspecified)
Result block: 0.0221

----------
measurement setup: in methanol, 303.15 K
measured parameter: solubility (mole fraction)
Output spec: single numeric token, no unit.

Query block: Please give the measured solubility (mole fraction) for this compound: CCOC(=O)OC1=C(c2cc(C)ccc2C)C(=O)NC12CCC(OC)CC2 (stereo unspecified)
Result block: 0.0159

----------
measurement setup: in methanol, 288.15 K
measured parameter: solubility (mole fraction)

Query block: Please give the measured solubility (mole fraction) for this compound: CCOC(=O)OC1=C(c2cc(C)ccc2C)C(=O)NC12CCC(OC)CC2 (stereo unspecified)
Result block: 0.00803
